- PROCEDURE_SUMMARY: Fluorescence excitation/emission of the styryl dye library compounds
- Assay type: physicochemical
- MEASUREMENT_PARAMETERS: EX/EM peak no. 1
ATTRIBUTE_MEASURED: EM(nm)
Value expressed in nm; do not type the unit.

What does the data say about its EM(nm)? Entry: COc1cc(OC)c(OC)cc1C=Cc1cc[n+](C)c(-c2cc(C)ccn2)c1.[I-] [Compound J38] 590

Look up EM(nm): COc1ccc(C=Cc2cccc(C)[n+]2C)cc1.[I-] [Compound L10] 510

Would you kindly share the measured EM(nm) for Cc1ccccc1C=Cc1ccc2ccccc2[n+]1C.[I-] [Compound H7] ? 650

Form field: reported EM(nm) of C[n+]1ccc(C=Cc2ccccc2F)c2ccccc21.[I-] [Compound G29] 560

EM(nm) lookup needed for COc1cc(C=Cc2cc[n+](C)c(-c3cc(C)ccn3)c2)cc(OC)c1OC.[I-] [Compound J13] , thanks. 590

# lookup: EM(nm) of C[n+]1c(C=Cc2cccc3ccccc23)ccc2ccccc21.[I-] [Compound H32] 660

So what's the measured EM(nm) for this one? Cc1cccc(/C=C/c2ccc(N(C)C)cc2)[n+]1C.[I-] [Compound L19] 580

Sample C[n+]1ccc(/C=C/c2ccc3c(c2)OCO3)c2ccccc21.[I-] [Compound G39] — what was its EM(nm)? 590

Dear colleague, I am looking for the recorded EM(nm) of the following compound: COc1ccc2c(ccc(C=CC=Cc3ccc(N(C)C)cc3)[n+]2C)c1.[I-] [Compound I37] 730

So what does the record say about EM(nm) for C[n+]1c(C=Cc2ccc3ccc4cccc5ccc2c3c45)ccc2ccccc21.[I-] [Compound H41] ? 640

# EM(nm) lookup, item C[n+]1ccc(C=Cc2cccc3ccccc23)cc1Br.[I-] [Compound F32] 530

What value of EM(nm) has been recorded for this entry: CN(C)c1ccc(C=CC=Cc2cccc[n+]2C)cc1.[I-] [Compound C37] 680

For the compound shown here, Cc1ccnc(-c2cc(C=Cc3c(F)c(F)c(F)c(F)c3F)cc[n+]2C)c1.[I-] [Compound J31] , give the reported EM(nm). 520

Using the record for CCc1ccc(C=Cc2ccc(OCc3ccccc3)c(OCc3ccccc3)c2)[n+](C)c1.[I-] [Compound E12] , report its EM(nm). 510

Given the compound Cc1ccc[n+](C)c1C=CC=Cc1ccc(N(C)C)cc1.[I-] [Compound D37] , what is its reported EM(nm)? 650

EM(nm) lookup needed for Cc1ccnc(-c2cc(C=Cc3ccc4ccc5cccc6ccc3c4c56)cc[n+]2C)c1.[I-] [Compound J41] , thanks. 630

What does the record list as EM(nm) for C[n+]1ccc(C=Cc2ccc(O)cc2)cc1Br.[I-] [Compound F16] ? 510

What value of EM(nm) has been recorded for this entry: COc1cc(OC)c(OC)cc1C=Cc1cccc(C)[n+]1C.[I-] [Compound L38] 570

###

- PROCEDURE_SUMMARY: Fluorescence excitation/emission of the styryl dye library compounds
- Type: physicochemical
- MEASUREMENT_PARAMETERS: EX/EM peak no. 1
ATTRIBUTE_MEASURED: EM(nm)
Response body: numeric value in nm, unit text excluded.

May I ask what EM(nm) has been recorded for Cc1cccc(C=Cc2ccc(OCc3ccccc3)c(OCc3ccccc3)c2)[n+]1C.[I-] ? 520

Which EM(nm) value is on record for COc1cc(C=Cc2cc[n+](C)cc2)cc(OC)c1OC.[I-] ? 550

Can you look up the measured EM(nm) of CC(=O)Nc1ccc(C=Cc2ccc3ccccc3[n+]2C)cc1.[I-] for me? 650

Data request, read-out EM(nm), for COc1ccc(C=Cc2cc[n+](C)cc2)cc1O.[I-] 510

// lookup EM(nm) for COc1cc(OC)c(OC)cc1C=Cc1cccc[n+]1C.[I-] 580
